I'd appreciate it if you could supply melting point values for the items below.

What value of measured melting point is listed for "Cn1cc(C2=C(c3cn(C)c4c([N+](=O)[O-])cccc34)C(=O)NC2=O)c2ccc(F)cc21" ?
259 to 261 °C

What value of measured melting point is listed for "CC[C@H]1[C@H](O)CC(=O)N1c1ccc(C#N)c(OC)c1" ?
138 to 141 °C

What value of measured melting point is listed for "COC(C)=CC(=O)Nc1cccc(SC)c1" ?
70 to 71 °C

What value of measured melting point is listed for Cc1c(Cl)cc(C(=O)CC(Cl)C(=O)O)cc1Cl (stereo unspecified) ?
129 to 132 °C

What value of measured melting point is listed for O=C(Nc1ccccc1)Nc1nc(C(O)CO)cs1 (stereo unspecified) ?
175 to 178 °C

What value of measured melting point is listed for CCOC(=O)C1=C(C)NN=C(CC)C1c1cccc(OC)c1 (stereo unspecified) ?
89 °C

---

I'd appreciate it if you could supply melting point values for the items below.

What value of measured melting point is listed for "O=c1c2cc(O)ccc2sc2c([N+](=O)[O-])ccc(Cl)c12" ?
> 300 °C

What value of measured melting point is listed for "O=C(NCCc1ccccc1)Nc1ccc([N+](=O)[O-])cc1O" ?
189 °C

What value of measured melting point is listed for "O=C(Nc1nccs1)c1nc(-c2ccc(CN3CCOCC3)cc2)[nH]c1-c1ccc(Cl)cc1" ?
253 to 255 °C

What value of measured melting point is listed for "COc1ccc(Cc2cnc(N)nc2N)cc1OCCCSc1ccc(NC(C)=O)cc1" ?
175 to 177 °C

What value of measured melting point is listed for "Cc1cc(C)c2c(n1)Nc1cc(C)c(C)cc1N(C)C2=O" ?
225 to 227 °C

What value of measured melting point is listed for "CC(=O)NCc1ccc2c(c1)ncn2-c1cccc(-c2nccs2)c1" ?
156 °C

What value of measured melting point is listed for CCC1(CSc2ccccc2C(=O)c2ccccc2)COC(=O)N1 (racemic) ?
103 to 104 °C

What value of measured melting point is listed for "O=C(NCc1ccc(F)c(F)c1)c1ccnc(N2CCN(Cc3ccc(F)cc3)C2=O)c1" ?
182 to 183 °C

What value of measured melting point is listed for "CCOC(=O)N1CCc2[nH]cc3c(=O)n(-c4ccc(Cl)cc4)nc-3c2C1" ?
357 to 359 °C

What value of measured melting point is listed for "Cc1nn(C)c(N)c1C#N" ?
193 to 195 °C

---

RECORDED_ENDPOINT: melting point

What value of measured melting point is listed for "CN(CC(=O)Nc1ccccc1N)C(=O)OC(C)(C)C" ?
134 to 136 °C

What value of measured melting point is listed for "CC(=O)Nc1ccc(-c2cc3cccc(C(=O)OCCN4CCCCC4)c3o2)cc1" ?
155 to 157 °C

What value of measured melting point is listed for "c1ccc2c(c1)CCc1ccccc1C2CCN1CCCC1" ?
51 to 53 °C

What value of measured melting point is listed for "O=C(Nc1cccc(S(=O)(=O)CCO)c1)c1cnn2c(C(F)(F)F)cc(-c3ccc(C(F)(F)F)cc3)nc12" ?
237 °C

What value of measured melting point is listed for "C[C@@H](Nc1ccc([N+](=O)[O-])cc1)C(=O)O" ?
238 to 244 °C

What value of measured melting point is listed for "CCN(CC)Cc1csc(N)c1C(=O)c1ccc(Cl)cc1" ?
78 to 80 °C

What value of measured melting point is listed for "Cc1ncc(C=CC=CC(=O)O)s1" ?
220 to 222 °C

What value of measured melting point is listed for "CC(C)(C)C(=O)c1c[nH]c2ncc(-c3cccc(OCc4ccccc4)c3)nc12" ?
184 to 185 °C

What value of measured melting point is listed for "CCOc1ccc(F)cc1NC(=O)Nc1ccc(N2CCN(C(=O)OC(C)(C)C)CC2)cc1" ?
168 to 169 °C

What value of measured melting point is listed for "O=C(c1ccccc1)c1ccc(Nc2ccccc2NC(=O)C(F)(F)F)cc1" ?
187 to 191 °C

What value of measured melting point is listed for "N#Cc1cc(=O)c2ccc(CBr)cc2o1" ?
162 to 166 °C

What value of measured melting point is listed for "Cc1cc(-c2ccc(C(F)(F)F)cc2)cn2c(-c3cc(-c4ncon4)c(S(N)(=O)=O)s3)cnc12" ?
285 °C

What value of measured melting point is listed for "CC(=NOCCO)c1ccc2ccccc2n1" ?
89 °C

What value of measured melting point is listed for "Cc1nc2c(N)nc(-c3ccncc3)nc2[nH]1" ?
> 310 °C

What value of measured melting point is listed for N#Cc1ccc(OC2CCN(c3ccncc3)C2)cc1 (configuration not stated) ?
182 to 185 °C

What value of measured melting point is listed for "O=S(=O)(c1ccccc1)c1ccc2cc[nH]c2c1" ?
141 to 144 °C

What value of measured melting point is listed for "COc1cc2c(c3c1OC(C)(C)C3)C(c1ccn(CC(=O)Nc3cccnc3)c(=O)c1)=NC(C)(C)C2" ?
251 to 253 °C

What value of measured melting point is listed for "CC(C)(CCl)C(=O)N(O)Cc1ccccc1F" ?
110 to 112 °C

What value of measured melting point is listed for CN(C)CC1(CO)C(O)C(O)C(O)CN1C (configuration not stated) ?
76 °C

What value of measured melting point is listed for "Cc1csc2ncc(CO)n12" ?
161 to 162 °C

What value of measured melting point is listed for "Cn1c(C(F)(F)F)cc(=O)n(-c2cc(OCC(N)=O)c(Cl)cc2F)c1=O" ?
104 to 106 °C

What value of measured melting point is listed for "N#Cc1cc(N)c(N)c(C#N)c1" ?
240 to 244 °C

What value of measured melting point is listed for C=CCc1cn(C2OC(CO)C(O)C2O)c(=O)nc1N (configuration not stated) ?
176 °C

What value of measured melting point is listed for "CCOP(=O)(Cc1ccc(NC(=O)CCc2conc2-c2ccc(Cl)cc2)cc1)OCC" ?
88 to 90 °C

What value of measured melting point is listed for "COc1cc(C(=O)Cc2ccccc2C)ccc1O" ?
79 to 81 °C

What value of measured melting point is listed for "CS(=O)(=O)c1ccc(-c2nn3ccoc3c2-c2ccc(F)cc2)cc1" ?
67 to 70 °C

What value of measured melting point is listed for "Cc1cccc(C)c1NC(=O)c1ccc(NC(=O)CN(C)C)cc1" ?
276 to 278 °C

What value of measured melting point is listed for "CCCC=Cc1c(C(C)C)nc(C(C)C)c(CO)c1-c1cccc(OC)c1" ?
71 to 75 °C

What value of measured melting point is listed for "CCCCCN(O)C(=O)Nc1ccc(Cl)c(Cl)c1" ?
88 °C

What value of measured melting point is listed for "CCOC(=O)c1nn(-c2ccccc2)c2c1CCCC2" ?
102 to 103 °C

What value of measured melting point is listed for "c1ccc(C(NCc2ccc(CNC(c3ccccc3)c3ccccc3)cc2)c2ccccc2)cc1" ?
92 to 94 °C

What value of measured melting point is listed for CCOC(=O)C1=C(N)N=C(SCC)C(C(=O)OCC)C1c1cccc([N+](=O)[O-])c1 (configuration not stated) ?
187 °C

What value of measured melting point is listed for "CCC(CC)N(Cc1ccc(C(=O)OC)cn1)S(=O)(=O)c1ccc(F)cc1" ?
117 to 119 °C

What value of measured melting point is listed for "COc1ccc(COC(=O)c2ccc3ccccc3c2O)cc1" ?
92 to 93 °C

What value of measured melting point is listed for "O=C(O)c1cc([N+](=O)[O-])c(-c2ccccc2)c([N+](=O)[O-])c1" ?
219 to 221 °C

What value of measured melting point is listed for "COc1ccc(-c2ccc3nnn(Cc4ccc5ncccc5c4)c3n2)cc1OC" ?
149 to 152 °C

What value of measured melting point is listed for "CCc1noc(-c2cn(-c3nccs3)cn2)n1" ?
147 to 148 °C

What value of measured melting point is listed for "O=C(c1cnccn1)N1CCN(Cc2ccc3c(c2)-c2[nH]nc(-c4ccsc4)c2C3)CC1" ?
254 to 259 °C

What value of measured melting point is listed for "CCOC(=O)c1sc2ccc(OC)cc2c1OCC" ?
42 to 43 °C

What value of measured melting point is listed for "CC(C)(C)C(=O)c1c[nH]c2ncc(-n3ccnc3)nc12" ?
215 to 217 °C

What value of measured melting point is listed for "O=[N+]([O-])c1cnc2cc(Cl)ccc2c1Nc1ccc(F)cc1" ?
198 to 200 °C

What value of measured melting point is listed for "Cc1[nH]c(=O)c(C#N)cc1C(=O)c1ccncc1" ?
> 305 °C

---

RECORDED_ENDPOINT: melting point

What value of measured melting point is listed for "CCn1c2ccccc2c2cc(NC(C)=O)ccc21" ?
195 to 197 °C

What value of measured melting point is listed for "Fc1ccccc1-c1nc2cccnc2o1" ?
119 to 120 °C

What value of measured melting point is listed for "CN(CCNc1ccc2nc(NC(=O)c3ccc(C(C)(C)C)cc3)cn2n1)C(=O)OC(C)(C)C" ?
200 to 201 °C

What value of measured melting point is listed for CCn1cc(C(=O)NC2CC2c2ccccc2)c(=O)c2cnc(N3CCCC3)nc21 (stereo unspecified) ?
199 to 201 °C

What value of measured melting point is listed for CC(C)N1C(=O)NC(c2ccc3c(c2)CCO3)c2cc3c(cc21)OCO3 (stereo unspecified) ?
183 to 185 °C

What value of measured melting point is listed for COC(=O)c1ccc(COc2c(C)c(C)c3c(c2C)C(c2ccc(C(C)C)cc2)C(C)(C)O3)cc1 (stereo unspecified) ?
108 to 110 °C

What value of measured melting point is listed for "CS(=O)(=O)Nc1ccc2ccccc2c1-c1c(P(=O)(c2ccccc2)c2ccccc2)ccc2ccccc12" ?
282 °C

What value of measured melting point is listed for "O=c1[nH]c2cc3[nH]c(-c4ccnnc4)nc3cc2o1" ?
330 °C

What value of measured melting point is listed for N#CC(Cc1ccc(O)cc1)c1noc2cc(O)ccc12 (stereo unspecified) ?
214 °C

What value of measured melting point is listed for "Fc1ccc(C=Nc2c3c(nc4ccccc24)CCCC3)cc1" ?
161 to 163 °C

What value of measured melting point is listed for "COc1cccc(C(=O)c2cc3ccc(OC)cc3o2)c1" ?
63 to 65 °C

What value of measured melting point is listed for "CC1(C)C(=O)Nc2cc3[nH]c(-c4ccnnc4)nc3cc21" ?
> 360 °C

What value of measured melting point is listed for O=C(O)C1c2ccccc2COc2cc(Br)ccc21 (stereo unspecified) ?
217 to 218 °C

What value of measured melting point is listed for "O=C1c2ccccc2-n2cnc(-c3noc(CCl)n3)c2[C@@H]2CCCN12" ?
205 to 206 °C

What value of measured melting point is listed for "COC(=O)c1c(CC(C)C)nc2ccc(Br)cc2c1-c1ccccc1" ?
108 to 110 °C

What value of measured melting point is listed for CC(=O)N=C(OC(C)=O)N1CCSC1c1ccccc1OCCN1CCN(c2ccccc2)CC1 (stereo unspecified) ?
120 to 124 °C

What value of measured melting point is listed for Cc1c[nH]c2c1C(=O)CC(c1cccs1)C2 (stereo unspecified) ?
195 to 196 °C

What value of measured melting point is listed for O=C(CCCCC1CCSS1)N1CCSC1 (stereo unspecified) ?
40 to 41 °C

What value of measured melting point is listed for CC(C)CNC(=O)COC1c2ccccc2C(=O)N1c1ccc2ccc(Cl)nc2n1 (stereo unspecified) ?
146 °C

What value of measured melting point is listed for "COc1ccc(-n2nnnc2CC(=O)C(F)(F)F)cc1C=O" ?
128 °C

What value of measured melting point is listed for CC1CCCN1CCCOc1ccc(C2CCC(O)CC2)cc1 (stereo unspecified) ?
80 °C

Entry source: a melting point compilation (Tetko et al.; mined from patent text by program, amines drawn as free bases though some values may be those of a salt)
